Cited source for all entries: ChEMBL document CHEMBL1131402

Tested on: Human immunodeficiency virus 1
Assay: Anti-HIV activity was determined in MT-4 cells in the presence of 0% human serum using cytopathic effect assay
Format: functional, organism-based
Details: Human immunodeficiency virus 1, MT4
Observed property: log10 EC50 (log10 of the value in µM)
Plainly stated, the numbers are log10 of EC50 given in µM.

*Q* Provide log10 EC50 value for the following compound: `COc1ccc(CN2CCN(C[C@@H](O)[C@H](Cc3ccccc3)NC(=O)[C@@H](NC(=O)OCc3csc(C(C)C)n3)C(C)C)[C@H](C(=O)NC(C)(C)C)C2)cc1OC`
*A* -1.77

*Q* Provide log10 EC50 value for the following compound: `CC(C)[C@H](NC(=O)OCc1cncs1)C(=O)N[C@@H](Cc1ccccc1)[C@H](O)CN1CCN(Cc2ccccc2)C[C@H]1C(=O)NC(C)(C)C`
*A* -1.77

*Q* Provide log10 EC50 value for the following compound: `CCc1ncc(COC(=O)N[C@H](C(=O)N[C@@H](Cc2ccccc2)[C@H](O)CN2CCN(Cc3ccc(OC)c(OC)c3)C[C@H]2C(=O)NC(C)(C)C)C(C)C)s1`
*A* -1.80

*Q* Provide log10 EC50 value for the following compound: `CC(C)c1nc(COC(=O)N[C@H](C(=O)N[C@@H](Cc2ccccc2)[C@H](O)CN2CCN(Cc3nc4ccccc4[nH]3)C[C@H]2C(=O)NC(C)(C)C)C(C)C)cs1`
*A* -1.34

*Q* Provide log10 EC50 value for the following compound: `CC(C)[C@@H](NC(=O)N(C)Cc1cncs1)C(=O)N[C@@H](Cc1ccccc1)[C@H](O)CN1CCN(Cc2ccccc2)C[C@H]1C(=O)NC(C)(C)C`
*A* 0.48

*Q* Provide log10 EC50 value for the following compound: `CC(C)c1nc(CN(C)C(=O)N[C@H](C(=O)N[C@@H](Cc2ccccc2)[C@H](O)CN2CCN(Cc3cncs3)C[C@H]2C(=O)NC(C)(C)C)C(C)C)cs1`
*A* -1.89

###

Kindly supply the reported inhibition values for the records listed here.
Target: Human immunodeficiency virus type 1 protease (Human immunodeficiency virus 1)
Experiment: Inhibition of HIV protease at 0.5 nM
Provide only the numeric value, understood in %.

*Q* Provide inhibition value for the following compound: `CC(C)[C@H](NC(=O)OCc1cncs1)C(=O)N[C@@H](Cc1ccccc1)[C@H](O)CN1CCN(Cc2cncs2)C[C@H]1C(=O)NC(C)(C)C`
*A* 45

*Q* Provide inhibition value for the following compound: `COc1ccc(CN2CCN(C[C@@H](O)[C@H](Cc3ccccc3)NC(=O)[C@@H](NC(=O)OCc3cnc(C(C)C)s3)C(C)C)[C@H](C(=O)NC(C)(C)C)C2)cc1OC`
*A* 51

*Q* Provide inhibition value for the following compound: `CCc1nc(COC(=O)N[C@H](C(=O)N[C@@H](Cc2ccccc2)[C@H](O)CN2CCN(Cc3ccc(OC)c(OC)c3)C[C@H]2C(=O)NC(C)(C)C)C(C)C)cs1`
*A* 82

*Q* Provide inhibition value for the following compound: `Cc1nc(COC(=O)N[C@H](C(=O)N[C@@H](Cc2ccccc2)[C@H](O)CN2CCN(Cc3ccc(F)cc3)C[C@H]2C(=O)NC(C)(C)C)C(C)C)cs1`
*A* 50

*Q* Provide inhibition value for the following compound: `CC(C)c1nc(COC(=O)N[C@H](C(=O)N[C@@H](Cc2ccccc2)[C@H](O)CN2CCN(Cc3ccc(F)cc3)C[C@H]2C(=O)NC(C)(C)C)C(C)C)cs1`
*A* 64

*Q* Provide inhibition value for the following compound: `CC(C)c1nc(CN(C)C(=O)N[C@H](C(=O)N[C@@H](Cc2ccccc2)[C@H](O)CN2CCN(Cc3ccccc3)C[C@H]2C(=O)NC(C)(C)C)C(C)C)cs1`
*A* 66

*Q* Provide inhibition value for the following compound: `CC(C)c1nc(COC(=O)N[C@H](C(=O)N[C@@H](Cc2ccccc2)[C@H](O)CN2CCN(Cc3cncs3)C[C@H]2C(=O)NC(C)(C)C)C(C)C)cs1`
*A* 67

*Q* Provide inhibition value for the following compound: `COc1cc(CN2CCN(C[C@@H](O)[C@H](Cc3ccccc3)NC(=O)[C@@H](NC(=O)N(C)Cc3csc(C(C)C)n3)C(C)C)[C@H](C(=O)NC(C)(C)C)C2)ccc1O`
*A* 63

*Q* Provide inhibition value for the following compound: `CC(C)c1nc(COC(=O)N[C@H](C(=O)N[C@@H](Cc2ccccc2)[C@H](O)CN2CCN(Cc3ccncc3)C[C@H]2C(=O)NC(C)(C)C)C(C)C)cs1`
*A* 73

*Q* Provide inhibition value for the following compound: `CC(C)[C@H](NC(=O)OCc1cncs1)C(=O)N[C@@H](Cc1ccccc1)[C@H](O)CN1CCN(Cc2ccccc2)C[C@H]1C(=O)NC(C)(C)C`
*A* 40

*Q* Provide inhibition value for the following compound: `COc1ccc(CN2CCN(C[C@@H](O)[C@H](Cc3ccccc3)NC(=O)[C@@H](NC(=O)OCc3csc(C(C)C)n3)C(C)C)[C@H](C(=O)NC(C)(C)C)C2)cc1OC`
*A* 62

*Q* Provide inhibition value for the following compound: `CC(C)c1nc(COC(=O)N[C@H](C(=O)N[C@@H](Cc2ccccc2)[C@H](O)CN2CCN(Cc3ccc(O)cc3)C[C@H]2C(=O)NC(C)(C)C)C(C)C)cs1`
*A* 54

*Q* Provide inhibition value for the following compound: `CC(C)c1nc(CN(C)C(=O)N[C@H](C(=O)N[C@@H](Cc2ccccc2)[C@H](O)CN2CCN(Cc3cncs3)C[C@H]2C(=O)NC(C)(C)C)C(C)C)cs1`
*A* 60

*Q* Provide inhibition value for the following compound: `Cc1nc(COC(=O)N[C@H](C(=O)N[C@@H](Cc2ccccc2)[C@H](O)CN2CCN(Cc3ccc4c(c3)OCO4)C[C@H]2C(=O)NC(C)(C)C)C(C)C)cs1`
*A* 45

*Q* Provide inhibition value for the following compound: `COc1ccc(CN2CCN(C[C@@H](O)[C@H](Cc3ccccc3)NC(=O)[C@@H](NC(=O)OCc3csc(C)n3)C(C)C)[C@H](C(=O)NC(C)(C)C)C2)cc1OC`
*A* 49

*Q* Provide inhibition value for the following compound: `CC(C)c1nc(COC(=O)N[C@H](C(=O)N[C@@H](Cc2ccccc2)[C@H](O)CN2CCN(Cc3cccnc3)C[C@H]2C(=O)NC(C)(C)C)C(C)C)cs1`
*A* 69

*Q* Provide inhibition value for the following compound: `CC(C)c1nc(COC(=O)N[C@H](C(=O)N[C@@H](Cc2ccccc2)[C@H](O)CN2CCN(Cc3nc4ccccc4[nH]3)C[C@H]2C(=O)NC(C)(C)C)C(C)C)cs1`
*A* 65

*Q* Provide inhibition value for the following compound: `CC(C)c1nc(COC(=O)N[C@H](C(=O)N[C@@H](Cc2ccccc2)[C@H](O)CN2CCN(Cc3cccc4c3COC4)C[C@H]2C(=O)NC(C)(C)C)C(C)C)cs1`
*A* 69

*Q* Provide inhibition value for the following compound: `CC(C)c1nc(COC(=O)N[C@H](C(=O)N[C@@H](Cc2ccccc2)[C@H](O)CN2CCN(Cc3ccccc3)C[C@H]2C(=O)NC(C)(C)C)C(C)C)cs1`
*A* 61

*Q* Provide inhibition value for the following compound: `CC(C)c1nc(COC(=O)N[C@H](C(=O)N[C@@H](Cc2ccccc2)[C@H](O)CN2CCN(Cc3ccc4c(c3)OCO4)C[C@H]2C(=O)NC(C)(C)C)C(C)C)cs1`
*A* 60

*Q* Provide inhibition value for the following compound: `COc1ccc(CN2CCN(C[C@@H](O)[C@H](Cc3ccccc3)NC(=O)[C@@H](NC(=O)OCc3cnc(C)s3)C(C)C)[C@H](C(=O)NC(C)(C)C)C2)cc1OC`
*A* 44

*Q* Provide inhibition value for the following compound: `CC(C)[C@H](NC(=O)N(C)Cc1cncs1)C(=O)N[C@@H](Cc1ccccc1)[C@H](O)CN1CCN(Cc2cncs2)C[C@H]1C(=O)NC(C)(C)C`
*A* 50

*Q* Provide inhibition value for the following compound: `CC(C)c1nc(COC(=O)N[C@H](C(=O)N[C@@H](Cc2ccccc2)[C@H](O)CN2CCN(Cc3cccc(O)c3)C[C@H]2C(=O)NC(C)(C)C)C(C)C)cs1`
*A* 53

*Q* Provide inhibition value for the following compound: `CCc1ncc(COC(=O)N[C@H](C(=O)N[C@@H](Cc2ccccc2)[C@H](O)CN2CCN(Cc3ccc(OC)c(OC)c3)C[C@H]2C(=O)NC(C)(C)C)C(C)C)s1`
*A* 37

###

Tested on: Human immunodeficiency virus 1
Assay: Anti-HIV activity was determined in MT-4 cells in the presence of 0% human serum using cytopathic effect assay
Format: functional, organism-based
Conditions: Human immunodeficiency virus 1, MT4
Kindly supply the reported EC50 values for the records listed here.
Provide only the numeric value, understood in nM.

*Q* Provide EC50 value for the following compound: `CCc1nc(COC(=O)N[C@H](C(=O)N[C@@H](Cc2ccccc2)[C@H](O)CN2CCN(Cc3ccc(OC)c(OC)c3)C[C@H]2C(=O)NC(C)(C)C)C(C)C)cs1`
*A* 19

*Q* Provide EC50 value for the following compound: `Cc1nc(COC(=O)N[C@H](C(=O)N[C@@H](Cc2ccccc2)[C@H](O)CN2CCN(Cc3ccc(F)cc3)C[C@H]2C(=O)NC(C)(C)C)C(C)C)cs1`
*A* 11

*Q* Provide EC50 value for the following compound: `CC(C)[C@H](NC(=O)OCc1cncs1)C(=O)N[C@@H](Cc1ccccc1)[C@H](O)CN1CCN(Cc2cncs2)C[C@H]1C(=O)NC(C)(C)C`
*A* 57
